Where these numbers come from: the METLIN SMRT retention time set (Domingo-Almenara et al. 2019)

Experiment: gradient 5% acetonitrile 3 min, to 50% in 2 min, to 85% in 15 min, held 3 min, 100 µL/min
Details: column: Zorbax Extend-C18 2.1 x 50 mm; eluents: water / acetonitrile, 0.1% formic acid
readout_type: RP-LC retention time (s)
One number for each entry, in s.

Below, each entry is followed by its recorded RP-LC retention time result.
# molecule, uom, obs_value
rows = [
    ("O=C(Cc1ccc(NC(=O)c2cnc3ccccc3n2)cc1)NCC(F)(F)F", "s", 756),
    ("CCCCC(C)C(=O)N1CCCN(C2=NS(=O)(=O)C(c3ccc(CC)cc3)=C2C)CC1 (stereo not given)", "s", 1020),
    ("Cc1cc(-c2nnc(-c3ccc(F)cc3)o2)c(C)n1CC(=O)N1CCCCC1", "s", 877),
    ("CCSc1nnc(-c2nn(C)c3c2CN(S(=O)(=O)c2ccc(C(C)C)cc2)CC3)n1CC", "s", 1090),
    ("COC(=O)c1ncn2c1C(=O)N(c1ccccc1C)C(C)(C(=O)NCc1ccccc1)C2 (stereo not given)", "s", 715),
    ("COc1cccc(CNC2=NCCNC23CCN(S(=O)(=O)c2cc(C)c(C)cc2C)CC3)c1", "s", 836),
    ("CC(NC(=O)c1ccco1)c1nc2ccccc2n1CC(=O)N1CCCC1 (stereo not given)", "s", 614),
    ("Cc1c(Cl)cccc1NC(=O)N1CCC(n2cnc3ccccc3c2=O)CC1", "s", 791),
    ("O=C(NCC1CCCO1)C1CCCN(c2ncnc3c2oc2ccccc23)C1 (stereo not given)", "s", 656),
    ("O=C1COc2ccccc2N1Cc1nc(-c2ccc3c(c2)nnn3C2CCCC2)no1", "s", 1030),
]

I would be grateful if you could provide RP-LC retention time for each of the following entries.
1. O=C(Nc1ccc(N2CCCCCC2)c(C(=O)O)c1)c1cccs1
2. Cc1ccc(CN2CCC3(CC2)CC(O)(c2ccccn2)CCO3)o1 (stereo not given)
3. O=C(NCCN1CCOCC1)c1cc2n(n1)CCCN(Cc1ccc(F)cc1)C2=O

[657, 595, 606]

I would be grateful if you could provide RP-LC retention time for each of the following entries.
1. COc1cc(N)c(Cl)cc1C(=O)CCC1CCN(CCNS(C)(=O)=O)CC1
2. Cc1nc(C2CN(S(=O)(=O)c3cc(F)ccc3F)CC23CCOCC3)no1 (stereo not given)

1: 673; 2: 834

* * *

Experiment: gradient 5% acetonitrile 3 min, to 50% in 2 min, to 85% in 15 min, held 3 min, 100 µL/min
Details: column: Zorbax Extend-C18 2.1 x 50 mm; eluents: water / acetonitrile, 0.1% formic acid
readout_type: RP-LC retention time (s)
Answers are plain numbers, in s.

Below, each entry is followed by its recorded RP-LC retention time result.
# compound, RP-LC retention time [s]
measured = [
    ("O=C(NCc1ccc(F)cc1)C1CC(=O)N(c2n[nH]c3cccc(F)c23)C1 (stereo not drawn)", 707),
    ("COc1ccc(-c2nc3ncccn3c2Nc2cccc(C(F)(F)F)c2)cc1", 903),
    ("Cc1ccc(CNC(=O)Cn2ncc3c(c2=O)N(CC2CC2)C(=O)CS3)cc1", 784),
]

I would be grateful if you could provide RP-LC retention time for each of the following entries.
1. CCN(CC)S(=O)(=O)c1ccc(C(=O)Nc2nc3c(s2)CCc2ccccc2-3)cc1
2. Cc1ccc(-c2nc(NC(=O)c3cc(C)on3)sc2C)c(C)c1
3. COc1ccc(CCN2CC(=O)N(c3cccc(C)c3)[C@@H]3CS(=O)(=O)C[C@@H]32)cc1
4. CCOC(=O)Cn1c(C2CC(=O)N(c3cc(Cl)ccc3OC)C2)nc2ccccc21 (stereo not drawn)

738
1120
830
778

I would be grateful if you could provide RP-LC retention time for each of the following entries.
1. Cc1oc(-c2ccc(NC(=O)C3CCCO3)cc2)nc1Cn1cccn1 (stereo not drawn)
2. CCC(C)N(CC(=O)N(Cc1ccco1)CC1CCCO1)C(=O)c1ccc(C)cc1 (stereo not drawn)
3. CCN(CC)CCNS(=O)(=O)c1cc(-c2[nH]ncc2C(=O)N2CCCC2)oc1C
4. O=C(CS(=O)(=O)Cc1ccccc1)NCc1ccccc1

[774, 917, 565, 741]

I would be grateful if you could provide RP-LC retention time for each of the following entries.
1. CN1CCN(CCNC(=O)CCCN2C(=O)C(c3ccccc3)Oc3cccnc32)CC1 (stereo not drawn)
2. O=C(c1cccnc1)N1CCC(Oc2cc(N3CCCCC3)ncn2)C1 (stereo not drawn)
3. CC(NC(=O)C1CCCN(c2nccnc2Sc2ccccc2)C1)c1ccccc1 (stereo not drawn)
4. Cc1cc(C)c2c(N)c(C(=O)c3ccccn3)sc2n1

605
651
1060
739
